Assignment: determine reported viability, T/C for the given compounds.
System: PANC-1 complex spheroid growth, percent test/control
Assay: Anticancer human tumor PANC-1 cell line growth inhibition [Asc]
Conditions: second compound 0.1 µM; first compound 0.00316 µM; active compounds read low
Just the number please, in %, no unit attached.

Challenge: Which viability, T/C is reported for this compound? COc1c(OCCCN2CCOCC2)ccc2c3n(c(=NC(=O)c4cnc(N)nc4)nc12)CCN3 + Cc1c(S(C)(=O)=O)c(-c2cc(F)cc(N3CCN(c4ccc(NS(=O)(=O)c5ccc(NC(CCN6CCC(C(=O)OCCCP(=O)(O)O)CC6)CSc6ccccc6)c(S(=O)(=O)C(F)(F)F)c5)cc4)CC3)c2)c(-c2ccc(Cl)cc2)n1C(C)C
Response given: 98

Challenge: What measured viability, T/C goes with O=C(c1ccc(F)c(F)c1Nc1ccc(I)cc1F)N1CC(O)([C@@H]2CCCCN2)C1 + CNC(C)C(=O)NC1CN(S(=O)(=O)c2cccc(S(=O)(=O)N3CCC4CCC(C(=O)NC(c5ccccc5)c5ccccc5)N4C(=O)C(NC(=O)C(C)NC)C3)c2)CCC2CCC(C(=O)NC(c3ccccc3)c3ccccc3)N2C1=O ?
Response given: 101

Challenge: Entry CCN1CCN(Cc2ccc(Nc3ncc(F)c(-c4cc(F)c5nc(C)n(C(C)C)c5c4)n3)nc2)CC1 + CNC(C)C(=O)NC1CN(S(=O)(=O)c2cccc(S(=O)(=O)N3CCC4CCC(C(=O)NC(c5ccccc5)c5ccccc5)N4C(=O)C(NC(=O)C(C)NC)C3)c2)CCC2CCC(C(=O)NC(c3ccccc3)c3ccccc3)N2C1=O : reported viability, T/C = ?
Response given: 102

---

Kindly state viability, T/C for each of the entries shown.
Tested on: PANC-1 complex spheroid growth, percent test/control
Experiment: Anticancer human tumor PANC-1 cell line growth inhibition [Asc];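 note: spheroids exposed to agents for 7 days; percent viability relative to DMSO vehicle wells taken as 100%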
Conditions: second compound 0.0316 µM; first compound 0.00949 µM; active compounds read low
Please give a number only; it is taken to be in %.

Challenge: May I ask what viability, T/C has been recorded for Cc1nc(N2CCC3(CC2)COC(C)C3N)c(CO)nc1Sc1ccnc(N)c1Cl (centres undefined) + CNC(C)C(=O)NC1CN(S(=O)(=O)c2cccc(S(=O)(=O)N3CCC4CCC(C(=O)NC(c5ccccc5)c5ccccc5)N4C(=O)C(NC(=O)C(C)NC)C3)c2)CCC2CCC(C(=O)NC(c3ccccc3)c3ccccc3)N2C1=O ?
Response given: 93.4

Challenge: Param item = Cc1nc(N2CCC3(CC2)COC(C)C3N)c(CO)nc1Sc1ccnc(N)c1Cl (centres undefined) + Cc1c(S(C)(=O)=O)c(-c2cc(F)cc(N3CCN(c4ccc(NS(=O)(=O)c5ccc(NC(CCN6CCC(C(=O)OCCCP(=O)(O)O)CC6)CSc6ccccc6)c(S(=O)(=O)C(F)(F)F)c5)cc4)CC3)c2)c(-c2ccc(Cl)cc2)n1C(C)C ; retrieve measured viability, T/C.
Response given: 87.6

Challenge: // viability, T/C lookup, key: CCN1C(C(=O)NC23CCC(C(=O)O)(CC2)CC3)C(c2cccc(Cl)c2F)C2(C(=O)Nc3cc(Cl)ccc32)C12CCCCC2 (centres undefined) + Cc1c(S(C)(=O)=O)c(-c2cc(F)cc(N3CCN(c4ccc(NS(=O)(=O)c5ccc(NC(CCN6CCC(C(=O)OCCCP(=O)(O)O)CC6)CSc6ccccc6)c(S(=O)(=O)C(F)(F)F)c5)cc4)CC3)c2)c(-c2ccc(Cl)cc2)n1C(C)C
Response given: 99.1

Challenge: Report viability, T/C for NC(=O)C(=Cn1cnc(-c2cc(C(F)(F)F)cc(C(F)(F)F)c2)n1)c1cncnc1 + CNC(C)C(=O)NC1CN(S(=O)(=O)c2cccc(S(=O)(=O)N3CCC4CCC(C(=O)NC(c5ccccc5)c5ccccc5)N4C(=O)C(NC(=O)C(C)NC)C3)c2)CCC2CCC(C(=O)NC(c3ccccc3)c3ccccc3)N2C1=O please.
Response given: 83.3

---

System: PANC-1 complex spheroid growth, percent test/control
Assay: Anticancer human tumor PANC-1 cell line growth inhibition [Asc];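 note: spheroids exposed to agents for 7 days; percent viability relative to DMSO vehicle wells taken as 100%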
Conditions: second compound 0.0949 µM; first compound 0.316 µM; active compounds read low
Readout: viability, T/C (%)
Form entry: value (%) — number only.

Challenge: Recorded viability, T/C for CNC(C)C(=O)NC1CN(S(=O)(=O)c2cccc(S(=O)(=O)N3CCC4CCC(C(=O)NC(c5ccccc5)c5ccccc5)N4C(=O)C(NC(=O)C(C)NC)C3)c2)CCC2CCC(C(=O)NC(c3ccccc3)c3ccccc3)N2C1=O (centres undefined) + CCN1C(C(=O)NC23CCC(C(=O)O)(CC2)CC3)C(c2cccc(Cl)c2F)C2(C(=O)Nc3cc(Cl)ccc32)C12CCCCC2 , please?
Response given: 92.2

Challenge: Given the compound C=CC(=O)N1CCN(c2nc(=O)n(-c3c(C)ccnc3C(C)C)c3nc(-c4c(O)cccc4F)c(F)cc23)C(C)C1 (centres undefined) + CCN1C(C(=O)NC23CCC(C(=O)O)(CC2)CC3)C(c2cccc(Cl)c2F)C2(C(=O)Nc3cc(Cl)ccc32)C12CCCCC2 , what is its reported viability, T/C?
Response given: 97.5

Challenge: Give its viability, T/C value. Item: COc1c(OCCCN2CCOCC2)ccc2c3n(c(=NC(=O)c4cnc(N)nc4)nc12)CCN3 + CCN1C(C(=O)NC23CCC(C(=O)O)(CC2)CC3)C(c2cccc(Cl)c2F)C2(C(=O)Nc3cc(Cl)ccc32)C12CCCCC2
Response given: 47.9

Challenge: Field request: viability, T/C | item: CCN1CCN(Cc2ccc(Nc3ncc(F)c(-c4cc(F)c5nc(C)n(C(C)C)c5c4)n3)nc2)CC1 + CCN1C(C(=O)NC23CCC(C(=O)O)(CC2)CC3)C(c2cccc(Cl)c2F)C2(C(=O)Nc3cc(Cl)ccc32)C12CCCCC2
Response given: 125

---

Test system: PANC-1 complex spheroid growth, percent test/control
Assay: Anticancer human tumor PANC-1 cell line growth inhibition [Asc];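 note: spheroids exposed to agents for 7 days; percent viability relative to DMSO vehicle wells taken as 100%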
Settings: second compound 0.0316 µM; first compound 3.16 µM; active compounds read low
Please go through the items and note down their viability, T/C.
Give the value in % but do not write % after it.

Challenge: Field request: viability, T/C | item: C=CC(=O)N1CCN(c2nc(=O)n(-c3c(C)ccnc3C(C)C)c3nc(-c4c(O)cccc4F)c(F)cc23)C(C)C1 (stereo not given) + Cc1c(S(C)(=O)=O)c(-c2cc(F)cc(N3CCN(c4ccc(NS(=O)(=O)c5ccc(NC(CCN6CCC(C(=O)OCCCP(=O)(O)O)CC6)CSc6ccccc6)c(S(=O)(=O)C(F)(F)F)c5)cc4)CC3)c2)c(-c2ccc(Cl)cc2)n1C(C)C
Response given: 98.5

Challenge: Quick check: viability, T/C of O=C(c1cc(Cc2n[nH]c(=O)c3ccccc23)ccc1F)N1CCN(C(=O)C2CC2)CC1 + Cc1c(S(C)(=O)=O)c(-c2cc(F)cc(N3CCN(c4ccc(NS(=O)(=O)c5ccc(NC(CCN6CCC(C(=O)OCCCP(=O)(O)O)CC6)CSc6ccccc6)c(S(=O)(=O)C(F)(F)F)c5)cc4)CC3)c2)c(-c2ccc(Cl)cc2)n1C(C)C ?
Response given: 99

Challenge: For the molecule shown here, C=C(F)C(=O)N1CCN(c2nc(OCC3CCCN3C)nc3c2CCN(c2cccc4cccc(Cl)c24)C3)CC1CC#N (stereo not given) + CNC(C)C(=O)NC1CN(S(=O)(=O)c2cccc(S(=O)(=O)N3CCC4CCC(C(=O)NC(c5ccccc5)c5ccccc5)N4C(=O)C(NC(=O)C(C)NC)C3)c2)CCC2CCC(C(=O)NC(c3ccccc3)c3ccccc3)N2C1=O , give the reported viability, T/C.
Response given: 86.8

Challenge: Could you share which viability, T/C value was measured for C=C(F)C(=O)N1CCN(c2nc(OCC3CCCN3C)nc3c2CCN(c2cccc4cccc(Cl)c24)C3)CC1CC#N (stereo not given) + Cc1c(S(C)(=O)=O)c(-c2cc(F)cc(N3CCN(c4ccc(NS(=O)(=O)c5ccc(NC(CCN6CCC(C(=O)OCCCP(=O)(O)O)CC6)CSc6ccccc6)c(S(=O)(=O)C(F)(F)F)c5)cc4)CC3)c2)c(-c2ccc(Cl)cc2)n1C(C)C ?
Response given: 92.4

Challenge: // query viability, T/C value for entry O=C(c1cc(Cc2n[nH]c(=O)c3ccccc23)ccc1F)N1CCN(C(=O)C2CC2)CC1 + CNC(C)C(=O)NC1CN(S(=O)(=O)c2cccc(S(=O)(=O)N3CCC4CCC(C(=O)NC(c5ccccc5)c5ccccc5)N4C(=O)C(NC(=O)C(C)NC)C3)c2)CCC2CCC(C(=O)NC(c3ccccc3)c3ccccc3)N2C1=O
Response given: 112

---

System: PANC-1 complex spheroid growth, percent test/control
Experiment: Anticancer human tumor PANC-1 cell line growth inhibition [Asc];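 note: spheroids exposed to agents for 7 days; percent viability relative to DMSO vehicle wells taken as 100%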
Conditions: second compound 0.03 µM; first compound 0.00316 µM; active compounds read low
Source text: Multicellular complex tumor spheroid response to apoptosis pathway targeting inhibitors Alrizomadlin, Pelcitoclax, and Dasminapant in combination with a variety of drugs and investigational agents in selected tumor cell lines […] Compounds. […] If the clinical Cmax for an agent had not been determined, the highest concentration tested was 10 microM. […]
Provide the recorded viability, T/C for the entries that follow.
Give just the number in %; leave the unit off.

Challenge: Name the recorded viability, T/C for NC1CCC(NC2CC2c2ccccc2)CC1 (stereo unspecified) + CCN1C(C(=O)NC23CCC(C(=O)O)(CC2)CC3)C(c2cccc(Cl)c2F)C2(C(=O)Nc3cc(Cl)ccc32)C12CCCCC2 .
Response given: 103

Challenge: I have this molecule here, Cn1ncnc1[C@H]1c2n[nH]c(=O)c3cc(F)cc(c23)N[C@@H]1c1ccc(F)cc1 + CCN1C(C(=O)NC23CCC(C(=O)O)(CC2)CC3)C(c2cccc(Cl)c2F)C2(C(=O)Nc3cc(Cl)ccc32)C12CCCCC2 , and I need its recorded viability, T/C.
Response given: 98.4

Challenge: Endpoint output: viability, T/C of CNC(C)C(=O)NC1CN(S(=O)(=O)c2cccc(S(=O)(=O)N3CCC4CCC(C(=O)NC(c5ccccc5)c5ccccc5)N4C(=O)C(NC(=O)C(C)NC)C3)c2)CCC2CCC(C(=O)NC(c3ccccc3)c3ccccc3)N2C1=O (stereo unspecified) + CCN1C(C(=O)NC23CCC(C(=O)O)(CC2)CC3)C(c2cccc(Cl)c2F)C2(C(=O)Nc3cc(Cl)ccc32)C12CCCCC2 . Value?
Response given: 103

Challenge: Sample COc1c(OCCCN2CCOCC2)ccc2c3n(c(=NC(=O)c4cnc(N)nc4)nc12)CCN3 + CCN1C(C(=O)NC23CCC(C(=O)O)(CC2)CC3)C(c2cccc(Cl)c2F)C2(C(=O)Nc3cc(Cl)ccc32)C12CCCCC2 — what was its viability, T/C?
Response given: 91.7

Challenge: Which viability, T/C is reported for this molecule? CCN1CCN(Cc2ccc(Nc3ncc(F)c(-c4cc(F)c5nc(C)n(C(C)C)c5c4)n3)nc2)CC1 + CCN1C(C(=O)NC23CCC(C(=O)O)(CC2)CC3)C(c2cccc(Cl)c2F)C2(C(=O)Nc3cc(Cl)ccc32)C12CCCCC2
Response given: 105

Challenge: Could you share which viability, T/C value was measured for O=C(c1ccc(F)c(F)c1Nc1ccc(I)cc1F)N1CC(O)([C@@H]2CCCCN2)C1 + CCN1C(C(=O)NC23CCC(C(=O)O)(CC2)CC3)C(c2cccc(Cl)c2F)C2(C(=O)Nc3cc(Cl)ccc32)C12CCCCC2 ?
Response given: 90.5
